Target: T1, human calcitonin receptor (human, UniProt P30988 25-474)
T1 sequence (looked up): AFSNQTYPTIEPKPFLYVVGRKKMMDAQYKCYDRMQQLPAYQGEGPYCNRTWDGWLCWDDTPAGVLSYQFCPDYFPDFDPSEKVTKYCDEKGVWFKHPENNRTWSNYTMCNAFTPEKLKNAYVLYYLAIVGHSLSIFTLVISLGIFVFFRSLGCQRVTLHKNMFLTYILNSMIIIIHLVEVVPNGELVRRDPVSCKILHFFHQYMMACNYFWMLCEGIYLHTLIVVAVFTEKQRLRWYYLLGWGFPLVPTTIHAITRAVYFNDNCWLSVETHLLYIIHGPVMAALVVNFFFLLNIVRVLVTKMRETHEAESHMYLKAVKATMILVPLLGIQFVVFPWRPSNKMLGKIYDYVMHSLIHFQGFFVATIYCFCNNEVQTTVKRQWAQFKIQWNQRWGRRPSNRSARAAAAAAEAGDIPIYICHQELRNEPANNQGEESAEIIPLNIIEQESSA
Assay: cell-based or functional assay
MEASURED PARAMETER: hCTR funct. EC50 (nM)

BINDER	UNITS OF MEASURE	VALUE OBSERVED
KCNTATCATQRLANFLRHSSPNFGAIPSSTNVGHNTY (N-terminal alpha-amino acylated with C20 diacid-gGlu; Cys2-Cys7 disulfide; C-terminal amide, analogue of human amylin; also called compound 40) [N^α1-[(4S)-4-carboxy-4-(19-carboxynonadecanoylamino)butanoyl]-[Arg17,Pro21,Pro27,His34]-h-amylin]	nM	2.68
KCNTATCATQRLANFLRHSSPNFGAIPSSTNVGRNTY (N-terminal alpha-amino acylated with C20 diacid-gGlu; Cys2-Cys7 disulfide; C-terminal amide, analogue of human amylin; also called compound 39) [N^α1-[(4S)-4-carboxy-4-(19-carboxynonadecanoylamino)butanoyl]-[Arg17,Pro21,Pro27,Arg34]-h-amylin]	nM	2.52
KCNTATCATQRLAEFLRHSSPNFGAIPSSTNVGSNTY (N-terminal alpha-amino acylated with C20 diacid-gGlu-2xOEG; Cys2-Cys7 disulfide; C-terminal amide, analogue of human amylin; also called compound 19)	nM	5.32
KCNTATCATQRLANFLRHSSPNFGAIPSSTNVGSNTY (N-terminal alpha-amino acylated with C20 diacid-gGlu-2xOEG; Cys2-Cys7 disulfide; C-terminal amide, analogue of human amylin; also called compound 24)	nM	10
